Tested on: Zea mays (ZEAMX)
test protocol: Pre-emergence Test, Zea mays (ZEAMX)
Assay type: in vivo
test conditions: 250 g/Ha (*), evaluated after 13 days
endpoint label: Pre-emergence Test ZEAMX, percentage damage caused to the plant (five-point scale)

| compound structure string | study system | result |
| --- | --- | --- |
| C=CCOc1ccn(Cc2cc(=O)c(C(=O)O)c(-c3ccc(Cl)c(Cl)c3)n2CC)n1 | Zea mays (ZEAMX) | 0 |
| CCn1c(Cn2nc(C(F)(F)F)cc2OC)cc(=O)c(C(=O)O)c1-c1ccc(Cl)c(Cl)c1 | Zea mays (ZEAMX) | 0 |
| CCn1c(Cn2ccc(I)n2)cc(=O)c(C(=O)O)c1-c1ccc(Cl)c(Cl)c1 | Zea mays (ZEAMX) | 4 (4=61-80%) |
| CCOC(=O)c1c(-c2ccc(Cl)c(Cl)c2)n(CC)c(Cn2ccc(Cl)n2)cc1=O | Zea mays (ZEAMX) | 0 |
| CCn1c(Cn2cc(F)cn2)cc(=O)c(C(=O)O)c1-c1ccc(Cl)c(Cl)c1 | Zea mays (ZEAMX) | 0 |
| CCn1c(Cn2ncc(Cl)c2C2CC2)cc(=O)c(C(=O)O)c1-c1ccc(Cl)c(Cl)c1 | Zea mays (ZEAMX) | 0 |
| CCn1c(Cn2ccc(OC(C)C)n2)cc(=O)c(C(=O)O)c1-c1ccc(Cl)c(Cl)c1 | Zea mays (ZEAMX) | 1 (1=0-20%) |
| CCn1c(Cn2cc(C(F)F)cn2)cc(=O)c(C(=O)O)c1-c1ccc(Cl)c(Cl)c1 | Zea mays (ZEAMX) | 0 |
| CCn1c(Cn2cc(C(F)(F)F)cn2)cc(=O)c(C(=O)O)c1-c1ccc(Cl)c(Cl)c1 | Zea mays (ZEAMX) | 0 |
| CCn1c(Cn2nc(C)cc2OC)cc(=O)c(C(=O)O)c1-c1ccc(Cl)c(Cl)c1 | Zea mays (ZEAMX) | 0 |
| Cn1c(Cn2ccc(C(F)(F)F)n2)cc(=O)c(C(=O)O)c1-c1ccc(C#N)c(Cl)c1 | Zea mays (ZEAMX) | 0 |
| CCn1c(Cn2ccc(COC)n2)cc(=O)c(C(=O)O)c1-c1ccc(Cl)c(Cl)c1 | Zea mays (ZEAMX) | 1 (1=0-20%) |
| CCn1c(Cn2ncc3cc(Cl)ccc32)cc(=O)c(C(=O)O)c1-c1ccc(Cl)c(Cl)c1 | Zea mays (ZEAMX) | 0 |
| CCn1c(Cn2nc(C)cc2OC(F)F)cc(=O)c(C(=O)O)c1-c1ccc(Cl)c(Cl)c1 | Zea mays (ZEAMX) | 1 (1=0-20%) |
| CCn1c(Cn2cc(Cl)cn2)cc(=O)c(C(=O)O)c1-c1ccc(Cl)c(Cl)c1 | Zea mays (ZEAMX) | 0 |
